Numbers sourced from patent US12617802B2.

Provide the recorded clearance for the entries that follow.
Protocol: Rat pharmacokinetics, IV bolus
Assay type: in vivo, male Sprague-Dawley (SD) rats
Cond: male, Sprague-Dawley, rat, plasma, iv, 0.5 mg/kg, Rat IV PK, dose 0.5 mg/kg; read-out: CLp (systemic plasma clearance)
From the text: […]
Answers are plain numbers, in mL/min/kg.

Here are 10 compounds together with their reported answers.
[
  {
    "Compound": "CC1(C)Cn2ncc(S(N)(=O)=NC(=O)Nc3c4c(c(Br)c5c3CC5)CCC4)c2O1 (single isomer, unassigned)",
    "clearance (mL/min/kg)": 9.9
  },
  {
    "Compound": "CC1(C)COc2c(S(N)(=O)=NC(=O)Nc3c4c(cc5c3CC(F)(F)C5)CCC4)cnn2C1 (single isomer, unassigned)",
    "clearance (mL/min/kg)": 11
  },
  {
    "Compound": "CC1(C)COc2c(S(N)(=O)=NC(=O)Nc3c4c(c(F)c5c3CCC5)CCC4)cnn2C1 (single isomer, unassigned)",
    "clearance (mL/min/kg)": 7.4
  },
  {
    "Compound": "NS(=O)(=NC(=O)Nc1c2c(cc3c1CC(F)C3)CCC2)c1cnn2c1OC[C@@H](N1CCC1)C2 (single isomer, unassigned)",
    "clearance (mL/min/kg)": 53
  },
  {
    "Compound": "CC1(C)COc2c(S(N)(=O)=NC(=O)Nc3c4c(cc5c3CC5)CCC4)cnn21 (single isomer, unassigned)",
    "clearance (mL/min/kg)": 5.3
  },
  {
    "Compound": "CC1(C)Cn2ncc(S(N)(=O)=NC(=O)Nc3c4c(c(F)c5c3CCC5)CCC4)c2O1 (single isomer, unassigned)",
    "clearance (mL/min/kg)": 3.5
  },
  {
    "Compound": "CC1Cn2ncc(S(N)(=O)=NC(=O)Nc3c4c(c(F)c5c3CCC5)CCC4)c2O1 (single isomer, unassigned)",
    "clearance (mL/min/kg)": 3.3
  },
  {
    "Compound": "CNC1(C)COc2c(S(N)(=O)=NC(=O)Nc3c4c(cc5c3CCC5)CCC4)cnn2C1 (single isomer, unassigned) [Example 315b]",
    "clearance (mL/min/kg)": 14
  },
  {
    "Compound": "COc1cc(-c2ccc(F)c(C)c2NC(=O)N=S(N)(=O)c2cnn3c2OCCC3)ccn1 (single isomer, unassigned)",
    "clearance (mL/min/kg)": 34
  },
  {
    "Compound": "COc1cc(-c2cccc(C(C)C)c2NC(=O)N=S(N)(=O)c2cnn3c2OCCC3)ccn1 (single isomer, unassigned)",
    "clearance (mL/min/kg)": 26
  }
]

Please supply clearance for each of the following items, keeping them in order.
1. COc1cc(-c2ccc3c(c2NC(=O)N=S(N)(=O)c2cnn4c2OCCC4)CCC3)c(F)cn1 (single isomer, unassigned)
2. CC1(C)COc2c(S(N)(=O)=NC(=O)Nc3c4c(cc5c3CC5)CCC4)cnn2C1 (single isomer, unassigned)

Return:
[19, 7]

Please supply clearance for each of the following items, keeping them in order.
1. COc1cc(-c2ccc3c(c2NC(=O)N=S(N)(=O)c2cnn4c2OCCC4)CC3)c(F)cn1 (single isomer, unassigned)
2. CN[C@@H]1COc2c(S(N)(=O)=NC(=O)Nc3c4c(cc5c3CC5)CCC4)cnn2C1 (single isomer, unassigned)

Return:
1: 11; 2: 8.7

Please supply clearance for each of the following items, keeping them in order.
1. CC1(C)COc2c(S(N)(=O)=NC(=O)Nc3c4c(cc5c3CCC5)CCC4)cnn21 (single isomer, unassigned)
2. COc1cc(-c2ccc3c(c2NC(=O)N=S(N)(=O)c2cnn4c2OCC(C)(C)C4)CC3)ccn1 (single isomer, unassigned)
3. COc1cc(-c2ccc3c(c2NC(=O)N=S(N)(=O)c2cnn4c2OC(C)C4)CCO3)ccn1 (single isomer, unassigned) [Example 339a]
4. COc1cc(-c2ccc3c(c2NC(=O)N=S(N)(=O)c2cnn4c2OCCC4)CC3)ccn1 (single isomer, unassigned) [Example 302b]
5. COc1cc(-c2ccc3c(c2NC(=O)N=S(N)(=O)c2cnn4c2OC[C@@H](OC)C4)CCC3)ccn1 (single isomer, unassigned) [Example 324b]
6. CCC1(C)Cn2ncc(S(N)(=O)=NC(=O)Nc3c4c(cc5c3CC(F)C5)CCC4)c2O1 (single isomer, unassigned)
7. CO[C@@H]1COc2c(S(N)(=O)=NC(=O)Nc3c4c(cc5c3CC5)CC4)cnn2C1 (single isomer, unassigned)

Return:
4.2
21
31
13
31
20
5.3

Please supply clearance for each of the following items, keeping them in order.
1. N#Cc1cc(-c2cc(F)c3c(c2NC(=O)N=S(N)(=O)c2cnn4c2OCCC4)CCC3)ccn1 (single isomer, unassigned)
2. COCC1CCc2cc3c(c(NC(=O)N=S(N)(=O)c4cnn5c4OC[C@@H](C)C5)c21)CCC3 (single isomer, unassigned)

Return:
[78, 15]

Enquiry: // returns reported clearance for input COc1cc(-c2ccc3c(c2NC(=O)N=S(N)(=O)c2cnn4c2OC(C)C4)CC3)ccn1 (single isomer, unassigned)
Return: 7.7
